Biological target: T1, human 5T4-His protein (human, UniProt Q13641 32-355)
T1 construct: also called recombinant 5T4 protein (human 5T4-his tag); human 5T4 protein; not shown: His tag
T1 sequence (looked up): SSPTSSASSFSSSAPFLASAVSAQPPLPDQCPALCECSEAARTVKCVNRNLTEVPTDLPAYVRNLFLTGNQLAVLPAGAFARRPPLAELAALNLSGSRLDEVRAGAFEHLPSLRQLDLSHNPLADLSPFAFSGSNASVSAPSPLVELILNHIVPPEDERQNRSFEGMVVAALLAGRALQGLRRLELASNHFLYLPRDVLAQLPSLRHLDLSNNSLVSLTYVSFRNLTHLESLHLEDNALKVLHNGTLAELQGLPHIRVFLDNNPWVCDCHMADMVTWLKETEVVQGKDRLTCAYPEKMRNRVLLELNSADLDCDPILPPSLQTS
Assay: SPR Biacore, Protein A capture
pKd: −log10 of the molar value.
resultType: pKd

binder | resultType | reportedValue
14G12 chimeric antibody (antibody, V domains shown, chimeric mAb) VH: EVQLQQSGPELVKPGASVKISCKASGYAFSSSWMNWVKQRPGKGLEWIGRIYREDGHTNYNGKFKGKATLTADKSSTTAYMQLTSLTSEDSAVYFCANGGAMDYWGQGTSVTVSS VL: DIQMTQSTSSLSASLGDRVTISCRASQDISNYLNWYQQKPDGTVKLLIYYTSRLHSGVPSRFSGSGSGTDYSLTISNLEQEDIATYFCQQDNTLPWTFGGGTKLEIK | pKd | 9.38
113H5 chimeric antibody (antibody, V domains shown, chimeric mAb) VH: DVQLQESGPGLVKPSQSLSLTCSVTGYSITSGYYWNWIRQFPGNKLEWMGYINSDGSNNYNPSLKNRISITRDTSKNQFFLKLNSVTTEDTATYYCAREEYDYWFAYWGQGTLVTVSA VL: DIVMTQSQKFMSTSVGDRVSVTCKASQNVGTNVAWYQQKPGQSPKALIYSASNRYSGVPDRFTGSGFGTDFTLTISNVQSEDLTEYFCQQYNSYPYTFGGGTNLEIK | pKd | 9.26
493E10 chimeric antibody (antibody, V domains shown, chimeric mAb) VH: DVQLVESGGGLVQPGGSRKLSCAASGFTFSSFGMHWVRQAPEKGLEWVAYISSGSSTIYYADTVKGRFTISRDNPKNTLFLQMTSLRSEDTAMYYCARNRAYHREAMDYWGQGTSVTVSS VL: DIVLTQSPASLTVSLGQRATISCRASQSVSSSSYNYMHWYQQKPGQPPKLLIKSASNLESGVPARFSGSGSGTDFTLNIHPVEEEDTATYYCQHSWEIPYTFGGGTKLEIK | pKd | 9.20
49C5 chimeric antibody (antibody, V domains shown, chimeric mAb) VH: EVQLQQSGPELVKPGASVKISCKASGYTFTDYYMNWVKQSHGKSLEWIGDINPYSGGATNNQKFKGKATLTVDKSSSTAYIELRSLTSEDSAVYFCARGSIYYDSTANYFDYWGQGTTLTVSS VL: DIQMTQSPASLSASVGETVTITCRASENIYSYLAWYQQKQGKSPQLLVYNAKSLTEGVPSRFSGSRSGTQFSLKINSLQPEDFGSYYCQHHYVTPWTFGGGTKLEIK | pKd | 9.21
425G1 chimeric antibody (antibody, V domains shown, chimeric mAb) VH: EVQLQQSGAELVKPGASVKLSCTASGFNIKDTYMHWVKQRPEQGLEWIGRIDPANGHTIFASKFQGKATITADTSSNTAYMQLSSLTSGDTAVYYCGLFTMVVVPWYFDVWGTGTTVTVSS VL: DIVMTQSHKFMSTSVGDRVSITCKASQDVSTAVAWYQQKPGQSPKLLIYWASTRHTGVPDRFTGSGSGTDYTLTISSVQAEDLALYYCQQHYSSPLTFGAGTKLELK | pKd | 8.79
267B5 chimeric antibody (antibody, V domains shown, chimeric mAb) VH: DVQFQESGPGLVKPSQSLSLTCSVTGYSITSSYYWNWIRQFPGDKLEWMGYISYDGSNNYNPSLKNRISITRDTSKKQFFLKLNSVTTEDTATYYCARSWDGGYAMDNWGQGTSVTVSS VL: SIVMTQTPKFLLVSAGDRVTITCKASQSVSNDVAWYQQKPGQSPKLLIYFASNRYTGVPDRFTGSGYGTVFTFTISTVQADDLAVYFCQQDYTSPWTFGGGTRLEIK | pKd | 8.79
24F10 chimeric antibody (antibody, V domains shown, chimeric mAb) VH: EVQLVESGGGLVKPGGSLKLSCAASGFTFSDYGMHWVRQAPEKGLEWVAYISSGTSTIYYTDTVKGRFTISRDNAKNTLFLQMTSLRSEDTAMYYCARGGDGYYRSTMDYWGQGISVTVSS VL: DIVLTQSPASLAVSLGQRATISCRASQSVSSSSYSYMHWYQQKPGQPPKLLIKSASNLASGVPARFSGSGSGTDFTLNIHPVEEEDSATYYCQHSWEVPRTFGGGTKLEIK | pKd | 9.52
286B4 chimeric antibody (antibody, V domains shown, chimeric mAb; also called 284B4-C) VH: DVQLHESGPGLVKPSQSLSLTCSVTGYSITNNYYWNWIRQFPGNNLEWMGYITYDGSNNYNPSLKNRISVTRDTSKNQFFLKLSSVTTEDTATYYCTRGGGQLRFDYWGQGTTLTVSS VL: SIVMTQTPKFLIVSAGDRVTITCKASQSVSNEVTWYQQKPGQSPKMLIYYASNRYTGVPDRFTGSGYGTDFTFTINTVQAEDLAIYFCQQDYSSPWTFGGGTKLEIK | pKd | 9.02
119G5 chimeric antibody (antibody, V domains shown, chimeric mAb) VH: QVQLQQSGPEVVKPGASVKISCKASGYTFTDYYMNWVKQSRGKSLEWIGDINPNNGGTNYNQKFKGKATLTVDKSSSTAYMELRSLTSEDSAVYYCAKEGPPGAMDYWGQGTSVTVSS VL: NIVMTQTPKFLLVSAGDRVTITCKASQSVSNHVAWYQQKPGQSPKLLIYYVSNRSIGVPDRFTGSGYGTDFTFTISTVQAEDLAVYFCQQVYSSPFTFGGGTRLEMK | pKd | 8.91
449H9 chimeric antibody (antibody, V domains shown, chimeric mAb) VH: QVQLQQSGAELVRPGSSVRISCKASGYAFSNYWMNWVKQRPGQGLEWIGQIYPGDGDTNYNGKFKNKATLTTDKSSSTAYMQLSSLTSEDSAVYFCARHYDYPYYYAMDYWGQGTSVTVSS VL: DIQMTQSPSSLSASLGERVSLTCRASQDIGIALTWLQQEPDGTIKRLIYATSSLDSGVPKRFSGSRSGSDYTLTISSLESEDFVDYYCLQYIISPYTFGGGTKLEIK | pKd | 9.42
